Record form. Attribute: IC50. Fill in for each entry.
- target under test: acid ceramidase (hACR) (Homo sapiens)
- Construct: expressed in transfected cells
- method notes: Acid ceramidase inhibition, biochemical fluorescent assay with cell lysates overexpressing acid ceramidase (substrate Rbm14-12)
- experimental setup: cell lysate, 1 hr preincubation at RT, pH 4.5, Rbm14-12 6.3 μM; read-out: IC50 hACR

Report IC50 for each item below.
1. COc1ccc(-c2cn(C(=O)NCCC3CC3)cn2)cn1 [Example 70]
2. COc1nc(C(C)(C)C)cn1C(=O)NCC#CC(C)C [Example 98]
3. COc1nc(C)cn1C(=O)NC1CCCC(F)(F)C1 (stereo not shown) [Example 153]
4. COc1nc(C(C)(C)C)cn1C(=O)NCCCC1(C(F)(F)F)CC1 [Example 96]
5. CC(C)CCNC(=O)n1cnc(-c2ccccc2)c1 [Example 27]
6. CC(C)CCNC(=O)n1ccnc1OC(C)C [Example 122]
7. COc1nc(C)cn1C(=O)NCCC(C)C [Example 160]

0.2 to 1 µM
< 0.2 µM
> 1 µM
< 0.2 µM
< 0.2 µM
0.2 to 1 µM
< 0.2 µM

For every listed record, write down its IC50.
1. CCOc1nc(-c2ccc(OC)nc2)cn1C(=O)NCCC1CC1 [Example 68]
2. COc1nc(C2(C)CCOCC2)cn1C(=O)NCCC1CC1 [Example 104]
3. COc1nc(C2CCOC2)cn1C(=O)NC1CCCCC1 (stereo not shown) [Example 108]

1. > 1 µM
2. 0.2 to 1 µM
3. > 1 µM

----------
- target under test: acid ceramidase (hACR) (Homo sapiens, UniProt Q13510)
- Construct: expressed in transfected cells
- Sequence (Q13510 22-395): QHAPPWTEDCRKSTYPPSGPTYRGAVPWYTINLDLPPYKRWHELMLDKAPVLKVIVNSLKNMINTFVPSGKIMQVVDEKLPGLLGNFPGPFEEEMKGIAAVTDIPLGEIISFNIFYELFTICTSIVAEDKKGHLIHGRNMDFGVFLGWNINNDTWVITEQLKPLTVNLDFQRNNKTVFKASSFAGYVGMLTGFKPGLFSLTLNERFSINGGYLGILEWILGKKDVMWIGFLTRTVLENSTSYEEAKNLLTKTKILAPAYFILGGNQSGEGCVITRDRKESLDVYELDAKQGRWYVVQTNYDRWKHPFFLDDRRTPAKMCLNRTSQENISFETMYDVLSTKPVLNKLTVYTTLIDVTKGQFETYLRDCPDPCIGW
- method notes: Acid ceramidase inhibition, biochemical fluorescent assay with cell lysates overexpressing acid ceramidase (substrate Rbm14-12)
- experimental setup: cell lysate, 1 hr preincubation at RT, pH 4.5, Rbm14-12 6.3 μM; read-out: IC50 hACR
pIC50: −log10 of the molar value.
measurement kind: pIC50

# batch size: 7; output pIC50 per entry
1. CCOc1nc(-c2ccccn2)cn1C(=O)NCCC1CC1
2. COc1nccn1C(=O)NC1CCCCC1
3. COc1nc(-c2cccnn2)cn1C(=O)NCCC(C)C
4. Cc1cn(C(=O)NCc2ccc(-c3ccccc3)cc2)c(OCCN2CCN(C)CC2)n1
5. O=C(NCCCC(F)(F)F)n1ccnc1Oc1ccccc1
6. Cc1cn(C(=O)NCCOc2ccccc2)c(OCCN2CCN(C)CC2)n1
7. Cc1cn(C(=O)NC2CCC(F)(F)CC2)c(Oc2ccc(N3CCOCC3)cc2)n1

< 6.00
< 6.00
6.00 to 6.70
> 6.70
> 6.70
> 6.70
> 6.70

----------
For each of the compounds below, state its IC50.
- target under test: acid ceramidase (hACR) (Homo sapiens)
- Construct: expressed in transfected cells
- method notes: Acid ceramidase inhibition, biochemical fluorescent assay with cell lysates overexpressing acid ceramidase (substrate Rbm14-12)
- experimental setup: cell lysate, 1 hr preincubation at RT, pH 4.5, Rbm14-12 6.3 μM; read-out: IC50 hACR

Recorded IC50, per entry:
Cc1nc(-c2cn(C(=O)NCCC3CC3)cn2)co1 :: 0.2 to 1 µM
CC(C)CCNC(=O)n1cnc(C2CCCN(C)C2)c1 (stereo not drawn) :: 0.2 to 1 µM
O=C(NCCC1CC1)n1cnc(-c2cccnc2N2CCC(N3CCOCC3)CC2)c1 :: < 0.2 µM

Look at each compound and report its IC50.
1. CC(C)CNC(=O)n1cnc(C(C)(C)C)c1
2. CC(CNC(=O)n1cnc(-c2cccnc2)c1)Cc1ccccc1 (stereo not drawn)
3. COc1nc(C)cn1C(=O)NCCCOC(F)(F)F
4. CC(C)CCNC(=O)n1cnc(CC2CCN(C)CC2)c1
5. CN1CCN(CCOc2nc(-c3ccccc3)cn2C(=O)NCC#Cc2ccccc2)CC1

1: 0.2 to 1 µM; 2: < 0.2 µM; 3: 0.2 to 1 µM; 4: 0.2 to 1 µM; 5: < 0.2 µM

----------
- target under test: acid ceramidase (hACR) (Homo sapiens, UniProt Q13510)
- Construct: expressed in transfected cells
- Sequence (Q13510 22-395): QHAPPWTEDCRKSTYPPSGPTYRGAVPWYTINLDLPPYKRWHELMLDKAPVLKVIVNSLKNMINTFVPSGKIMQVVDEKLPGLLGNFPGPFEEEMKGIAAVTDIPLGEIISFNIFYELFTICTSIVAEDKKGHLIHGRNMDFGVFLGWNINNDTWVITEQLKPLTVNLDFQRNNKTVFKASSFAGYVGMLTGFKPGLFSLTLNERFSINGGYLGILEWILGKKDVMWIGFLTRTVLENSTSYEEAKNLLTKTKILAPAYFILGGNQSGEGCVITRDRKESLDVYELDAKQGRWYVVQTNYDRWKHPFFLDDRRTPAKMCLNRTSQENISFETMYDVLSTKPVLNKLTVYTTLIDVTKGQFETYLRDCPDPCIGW
- method notes: Acid ceramidase inhibition, biochemical fluorescent assay with cell lysates overexpressing acid ceramidase (substrate Rbm14-12)
- experimental setup: cell lysate, 1 hr preincubation at RT, pH 4.5, Rbm14-12 6.3 μM; read-out: IC50 hACR
pIC50: −log10 of the molar value.
Field: pIC50. Provide a value for each of the compounds that follow.

Examples from the recorded data:
CN1CCC(c2cn(C(=O)NCCCC3(C(F)(F)F)CC3)cn2)CC1 :: > 6.70
CC(C)CCNC(=O)n1cnc(-c2nccs2)c1 :: 6.00 to 6.70
CC(C)CCNC(=O)n1cnc(C2CCN(C)CC2)c1 :: 6.00 to 6.70
CC(C)CCNC(=O)n1cc(C(C)(C)C)nc1Oc1ccccc1F :: 6.00 to 6.70
COc1nc(C2CCCC2)cn1C(=O)NC1CCCCC1 :: < 6.00

Below are some compounds; for each one, tell me its pIC50.
1. COc1ccc(-c2cn(C(=O)NCCC(C)C)cn2)cn1
2. CC(C)CCNC(=O)n1cnc(-c2cccnc2)c1

1: 6.00 to 6.70; 2: 6.00 to 6.70

----------
- method notes: Compound solubility in water
- Format: physicochemical
For each of the compounds below, state its solubility.
Numbers only, in µg/mL.

O=C(NCCc1ccccc1)n1cnc(-c2ccccn2)c1 :: 21.1
COc1nc(C2(C)CCOCC2)cn1C(=O)NCCC1CC1 :: 28
Cc1cn(C(=O)NC2CC2)c(OC2CCC(F)(F)CC2)n1 :: 31

Record solubility per entry; entries follow.
1. COc1nc(C)cn1C(=O)NCCc1ccccc1
2. O=C(NCCC1(C(F)(F)F)CC1)n1cnc(-c2cccnc2)c1
3. COc1nc(-c2ccccc2)cn1C(=O)NC1CCCC(F)(F)C1 (stereo not drawn)
4. Cc1cn(C(=O)NCC#CCc2ccccc2)c(OCCN2CCN(C)CC2)n1

27
23.7
1
39

----------
- method notes: Compound solubility in water
- Type: physicochemical
measurement kind: solubility (µg/mL)
Answers are plain numbers, in µg/mL.

COc1nc(C2CCOCC2)cn1C(=O)NCCC(C)C :: 29
CC(C)CC(C)NC(=O)n1cnc(-c2cccnc2)c1 (stereo not shown) :: 22.3
O=C(NCc1ccccc1)n1cnc(-c2cccnc2)c1 :: 13.6
COc1nc(C(C)(C)C)cn1C(=O)NCCCC1(C(F)(F)F)CC1 :: 12

Provide the reported solubility of each entry below, same order.
1. COc1nc(Cl)cn1C(=O)NCCC1CCCC1(F)F (stereo not shown)
2. COc1nc(C2CCCC2)cn1C(=O)NC1CC1
3. CC(CNC(=O)n1cnc(-c2cccnc2)c1)Cc1ccccc1 (stereo not shown)
4. CC(C)CNC(=O)n1cnc(-c2cccnc2)c1
5. CCOc1nccn1C(=O)NCCC(C)C
6. CSc1nc(-c2cccnc2)cn1C(=O)NCCC1CC1 [Example 67a]

[29, 13, 16.1, 19.1, 23, 23]

----------
- method notes: Compound solubility in water
- Type: physicochemical
measurement kind: log10 of solubility (log10 of the value in µg/mL)
Scale type: logarithmic (base 10). Underlying solubility unit: µg/mL.

Lab note: each molecule below needs its log10 of solubility filled in.
1. Cc1nc(-c2cn(C(=O)NCCC3CC3)cn2)co1
2. CC(CCNC(=O)n1cnc(-c2cccnc2)c1)c1ccccc1 (centres unmarked)
3. Cc1cn(C(=O)NCCC(C)C)c(Oc2ccccc2)n1
4. CSc1nc(C(C)(C)C)cn1C(=O)NCCC(C)C

1: 1.41; 2: 0.58; 3: 1.28; 4: -0.70

State the recorded log10 of solubility for this entry: Cc1nc(-c2cccnc2)cn1C(=O)NCCC(C)C
0.90
